For Melanocortin receptor 3 (Homo sapiens), measured AC50 is reported for the entries below.

CC(C)(C)C(=O)OCC(=O)[C@H]1CC[C@H]2[C@@H]3CCC4=CC(=O)CC[C@]4(C)[C@H]3CC[C@]12C [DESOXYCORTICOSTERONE PIVALATE]    > 10 µM

Ask | # get_value(readout= AC50, system= Melanocortin receptor 3 (Homo sapiens)) for CCC(C)C(CC)C(N)=O (stereo not given) [VALNOCTAMIDE]; further: assay procedure not described here
Reply | > 30 µM

Ask | Return AC50 measured with Melanocortin receptor 3 (Homo sapiens) given this compound: CCC1(c2ccccc2)CCC(=O)NC1=O (stereo not given) [GLUTETHIMIDE]
Reply | > 10 µM
